system: MOLT-4; assay: NCI tumour cell line growth inhibition, 48 h
Active and inactive are the calls of the source. Rule as the data show it: active = GI50 up to about 1.1 µM and inactive = higher.
Log the outcome using a class from yes (1) for active, no (0) for inactive

>  <molecule>
CCN(CC)CCNc1ccc2nnn3c4ccc(O)cc4c(=O)c1c23

>  <cat>
yes (1)

$$$$

Query: Field: outcome | Entry: COc1cc2cc(C(=O)N3CC(CCl)c4ccc(O)cc43)[nH]c2c(OC)c1OC (stereo not given)
Response: yes (1)

Query: Field: outcome | Entry: O=C(CCN1CCOCC1)Nc1ccc(F)cc1F
Response: no (0)

Query: Field: outcome | Entry: CCOc1cc(CCNC)c2c(ccc3ccc(OC)c(O)c32)c1OC
Response: no (0)

Query: Field: outcome | Entry: COc1cc(NC=C2C(=O)OC(C)(C)OC2=O)c(OC)c(C)c1OC
Response: no (0)
